target: L-lactate dehydrogenase (Plasmodium falciparum (isolate CDC / Honduras)) (UniProt Q27743); test: PfLDH activity inhibition – cell lysate, 3D7 strain, counter-screen for P. falciparum growth inhibition project (AID 2304);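 further: 0% = vehicle and 100% = reference inhibitor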; conditions: P. falciparum 3D7 crude extract, LDH APAD/NBT absorbance; at 2 µM; stronger effect = higher value
Sequence (Q27743 whole entry, looked up): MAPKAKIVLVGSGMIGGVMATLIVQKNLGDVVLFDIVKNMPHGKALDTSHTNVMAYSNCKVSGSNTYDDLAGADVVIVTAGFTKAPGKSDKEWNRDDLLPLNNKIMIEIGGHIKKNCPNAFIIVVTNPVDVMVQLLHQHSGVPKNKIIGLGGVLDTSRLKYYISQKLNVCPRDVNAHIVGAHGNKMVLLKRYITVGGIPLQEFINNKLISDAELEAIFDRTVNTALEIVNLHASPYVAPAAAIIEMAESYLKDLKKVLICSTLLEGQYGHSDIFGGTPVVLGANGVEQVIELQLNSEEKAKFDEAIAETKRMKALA
propertyMeasured: inhibition (%)
# output: bare number, implied unit %

Q) Returns the measured inhibition for the input compound. Input: CCCC(=O)Nc1ccc(OCCN(Cc2ccccc2OC(F)(F)F)c2ccc(C(F)(F)F)c(C#N)c2)cc1
A) -1

Q) Recorded inhibition of Cc1cc(Nc2ccc(C)c(Cl)c2)n2ncnc2n1 , please.
A) -1

Q) Given the compound CCNc1cc(C(=O)N[C@@H](Cc2ccccc2)[C@H](O)CNC2(CCC(C)C)CC2)cc(N2CCCCS2(=O)=O)c1 , what is its reported inhibition?
A) 2

Q) Would you mind telling me what inhibition value was observed for Cc1cccc2[nH]c(-c3cccc(-c4cccc(CNCCNC(=O)c5ccnn5C)c4)c3)nc12 ?
A) -3

Q) Any idea what its inhibition is? The compound is Cc1cc(N)c2cc(NC(=O)c3cc4ccccc4s3)ccc2n1
A) 2

Q) Reported inhibition for O=C(Nc1ccc(Oc2ccccc2)cc1)N1CCC(CCN2CCC(c3c[nH]c4ccccc34)CC2)CC1 : what is it?
A) 7

Q) Returns the measured inhibition for the input compound. Input: O=C(Nc1ccc2c(c1)CCC2)c1ccc(N2CCN(c3ccncc3)CC2)cc1
A) 4

Q) Which inhibition value belongs to COc1c(C2CCN(CCCCNC(=O)c3ccc(NC(=O)c4ccc(C#N)cc4)cc3)CC2)ccc2c1CCCC2 ?
A) 1

Q) Query: inhibition; subject: O=C(Nc1ccc(-c2cccc(-c3nc4ccc(C(F)(F)F)cc4[nH]3)c2)cc1)Nc1ccc(F)c(F)c1F
A) 1

Q) Tell me the measured inhibition of Cn1ccnc1CNC(=O)c1ccc(-c2cccc(-c3nc4ccc(F)cc4[nH]3)c2)cc1 , please.
A) 7

Q) What does the record list as inhibition for O=C(/C=C/c1ccc(I)cc1)NCCCCCN1CCC(c2c[nH]c3ccccc23)CC1 ?
A) -4

Q) Which inhibition reading was recorded for the compound COc1ccc2nccc([C@@H](O)CN3CCC(NCc4ccc5scnc5c4)CC3)c2c1 ?
A) -1

Q) // returns reported inhibition for input O=C(Cc1ccc([N+](=O)[O-])cc1)N1CCc2cc3nccc(N4CCN5CCC[C@H]5C4)c3cc21
A) -4

Q) // returns reported inhibition for input CC(Oc1ccc(NC(=O)c2cccs2)cc1)C(=O)c1ccc(Cl)cc1 (centres undefined)
A) 1

Q) Using the record for Cc1c(Cc2ccccc2)c(=O)oc2c(C)c3c(cc12)CN(CC(C)c1ccccc1)CO3 (centres undefined) , report its inhibition.
A) -1

Q) Requested read-out: inhibition. Entry: CCN(CC)CCOC(=O)c1ccc(NC(=O)c2cc(-c3ccc(C)cc3)nc3ccccc23)cc1
A) -4

Q) Consider the compound CNC(=O)COc1ccc(Nc2nnc(-c3ccc(C)c(S(=O)(=O)NCC4CCCO4)c3)c3ccccc23)cc1 (centres undefined) and give its measured inhibition.
A) 0

Q) Which value of inhibition has been reported for COc1ccc(Cc2c(C)nc3nc(N)nc(N)c3c2C)cc1OC in the records?
A) -1

Q) Requested read-out: inhibition. Entry: CCCCN(CCCC)CCC(O)C(=Cc1ccc(Cl)cc1Cl)c1ccc(C(F)(F)F)cc1N (centres undefined)
A) 1

###

assay: inhibition of 3D7 malaria parasite growth – strain 3D7 (AID 2306);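 further: 0% = DMSO wells and 100% = chloroquine plus artemisinin control wells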; conditions: P. falciparum 3D7 erythrocytic growth, LDH absorbance, 72 h; at 2 µM; stronger effect = higher value
propertyMeasured: growth inhibition (%)
Number only, in %; omit the unit.

Q) Quick one: growth inhibition for CCc1cn2c3c(cc(C(=O)N[C@@H](Cc4ccccc4)[C@H](O)CNCc4cccc(C)c4)cc13)N(C)S(=O)(=O)CC2 ?
A) 96

Q) Fill blank: measured growth inhibition of the compound CC1CCN(CC[C@H]2CCCN2S(=O)(=O)c2cccc(NC(=O)c3ccc(-c4ccc(Cl)cc4)o3)c2)CC1 is ____.
A) 101

Q) Would you kindly share the measured growth inhibition for CN(C)C(=NCCCCCCN=C(/N=C(/N)Nc1ccc(Cl)cc1)N(C)C)/N=C(/N)Nc1ccc(Cl)cc1 ?
A) 97

Q) Could you tell me which growth inhibition is on file for Cc1c(Oc2ccc(-n3ccnc3)cc2)ncnc1N1CCC2(CC1)CNCc1ccccc12 ?
A) 95

Q) growth inhibition for COc1cccc2c(NN=Cc3ccccc3[N+](=O)[O-])ccnc12 ?
A) 99

Q) For CCCN(CCC)C(=O)c1cc(C(=O)N[C@@H](Cc2ccccc2)[C@H](O)CNC2CC2)cc(N2CCCCS2(=O)=O)c1 , what is its reported growth inhibition?
A) 100

Q) Query: growth inhibition; subject: COc1ccccc1CCNc1nc(C)cc(NCCC(=O)NCCOc2ccccc2)n1
A) 85

Q) Need growth inhibition, item Cc1ccc(Cc2c(N)nc3nc(N)nc(N)c3c2C)cc1
A) 95

Q) Need growth inhibition, item N=C(N)c1cc(Br)cc(NC(=O)Nc2cc(Br)cc(C(=N)N)c2)c1
A) 93

###

biological target: L-lactate dehydrogenase (Plasmodium falciparum (isolate CDC / Honduras)) (UniProt Q27743); experiment: PfLDH activity inhibition – cell lysate, 3D7 strain, counter-screen for P. falciparum growth inhibition project (AID 2304);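 further: 0% = vehicle and 100% = reference inhibitor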; conditions: P. falciparum 3D7 crude extract, LDH APAD/NBT absorbance; at 2 µM; stronger effect = higher value
propertyMeasured: inhibition (%)
Number in %, nothing else.

Q) Short answer please: inhibition, L-lactate dehydrogenase (Plasmodium falciparum (isolate CDC / Honduras)) (UniProt Q27743), entry COc1ccc2nccc(NN=Cc3ccc(N(C)C)cc3)c2c1
A) -6

Q) I'm curious: which inhibition was measured for Cc1cc(C)n(-c2nc(Nc3cccc(C(F)(F)F)c3)nc(-n3nc(C)cc3C)n2)n1 tested on L-lactate dehydrogenase (Plasmodium falciparum (isolate CDC / Honduras)) (UniProt Q27743)?
A) -6

Q) Please provide the recorded inhibition for C=C(F)c1sc(CNCCCNc2nc3ccccc3[nH]2)c(C)c1Br , tested on L-lactate dehydrogenase (Plasmodium falciparum (isolate CDC / Honduras)) (UniProt Q27743).
A) 3

Q) Requested read-out inhibition, target or system L-lactate dehydrogenase (Plasmodium falciparum (isolate CDC / Honduras)) (UniProt Q27743), entry O=c1ccc2ccc(F)c3c2n1CC3CN1CCC(NCc2cccc(-c3ccccc3F)c2)CC1 (stereo unspecified)
A) -1

Q) What inhibition appears in the records for this compound with L-lactate dehydrogenase (Plasmodium falciparum (isolate CDC / Honduras)) (UniProt Q27743)? CCN1CCN(CCCNc2c3ccccc3nc3ccccc23)CC1
A) -1

Q) Notebook entry, L-lactate dehydrogenase (Plasmodium falciparum (isolate CDC / Honduras)) (UniProt Q27743) assay: inhibition of CC1(C)C=C(c2ccncc2)c2cc(Cl)ccc2O1 = ?
A) 1

Q) Reported inhibition for L-lactate dehydrogenase (Plasmodium falciparum (isolate CDC / Honduras)) (UniProt Q27743), given Cc1nc(Nc2ccncc2)cc(-c2ccncc2)n1 ?
A) -2

Q) Give inhibition (L-lactate dehydrogenase (Plasmodium falciparum (isolate CDC / Honduras)) (UniProt Q27743)) of the following compound: O=C(NC1CCN(CC2(c3ccccc3)CCCC2)CC1)c1[nH]ncc1Cl
A) 5

Q) Find inhibition (L-lactate dehydrogenase (Plasmodium falciparum (isolate CDC / Honduras)) (UniProt Q27743)) for the entry CN1CCN(Cc2ccc(-c3cccc(-c4nc5ccccc5[nH]4)c3)cc2)CC1
A) 3

Q) Checklist item: inhibition tested on L-lactate dehydrogenase (Plasmodium falciparum (isolate CDC / Honduras)) (UniProt Q27743), entry Nc1ccc(-c2ccc3ccnc(N)c3c2)cc1 , value?
A) -1

Q) Missing value: inhibition, L-lactate dehydrogenase (Plasmodium falciparum (isolate CDC / Honduras)) (UniProt Q27743), entry Cc1cc(=O)c2cc(Oc3cccc(OC(F)(F)F)c3)ccc2[nH]1 . Fill in?
A) 2

Q) Param readout = inhibition; param system = L-lactate dehydrogenase (Plasmodium falciparum (isolate CDC / Honduras)) (UniProt Q27743); param query = CN(Cc1cccc(C#N)c1)C1CCN(c2cc(NC(=O)c3cccc(F)c3)ccn2)CC1 ; response: value
A) -3

Q) Entry O=C(/C=C/c1ccc(Cl)c(Cl)c1)NCCCCCCN1CCN(C(=O)Nc2ccc(Cl)c(Cl)c2)CC1 , system L-lactate dehydrogenase (Plasmodium falciparum (isolate CDC / Honduras)) (UniProt Q27743): what inhibition was measured?
A) -1

Q) Entry COc1ccc(Cc2cccc(C(C(=O)NCc3cc(Cl)cc(Cl)c3)N3CCN(C)CC3)c2)cc1 (stereo unspecified) , system L-lactate dehydrogenase (Plasmodium falciparum (isolate CDC / Honduras)) (UniProt Q27743): what inhibition was measured?
A) -9

Q) Form entry - test system: L-lactate dehydrogenase (Plasmodium falciparum (isolate CDC / Honduras)) (UniProt Q27743); read-out: inhibition; compound: CCOc1ccc(-c2nonc2NC(=O)c2ccccc2OC)cc1OCC
A) -3

Q) Short answer please: inhibition, L-lactate dehydrogenase (Plasmodium falciparum (isolate CDC / Honduras)) (UniProt Q27743), entry COc1ccc(CCn2c(=N)c(C(=O)NC3CCCC3)cc3c(=O)n4ccccc4nc32)cc1
A) 1

Q) Provide value of inhibition for this record tested with L-lactate dehydrogenase (Plasmodium falciparum (isolate CDC / Honduras)) (UniProt Q27743): Cc1cccc2[nH]c(-c3ccc(-c4ccc(NC(=O)Nc5cccc(C#N)c5)cc4)cc3)nc12
A) 6

Q) Provide the documented inhibition with L-lactate dehydrogenase (Plasmodium falciparum (isolate CDC / Honduras)) (UniProt Q27743) as the system for Cc1cc(N[C@@H](CC(C)C)C(=O)NC2CCCC2)nc(NCC2CCCCC2)n1
A) 0

Q) Look up inhibition with L-lactate dehydrogenase (Plasmodium falciparum (isolate CDC / Honduras)) (UniProt Q27743) for this compound: O=C(NC1CCCCC1)N(Cc1ccc(-c2ccc(CNCc3ccc4c(c3)OCO4)cc2)cc1)C1CCN(Cc2ccccc2)CC1
A) -2

Q) Please state recorded inhibition (tested on L-lactate dehydrogenase (Plasmodium falciparum (isolate CDC / Honduras)) (UniProt Q27743)) of CC(C)CNC(=S)N1CCCN(c2nc3ccc(Cl)cc3s2)CC1
A) -3

Q) Lookup: inhibition / L-lactate dehydrogenase (Plasmodium falciparum (isolate CDC / Honduras)) (UniProt Q27743) / Cc1cc(NS(=O)(=O)c2cccc(C(C)N3CCC(N4CCCC4)CC3)c2)ccc1C(C)C (stereo unspecified)
A) -2

Hello, the source for this data is PubChem BioAssay, in case you need it.
